# SYSTEM_UNDER_TEST: c-Abl kinase (Homo sapiens, UniProt P00519)
# Construct: The His-tagged kinase domain of c-Abl is cloned and expressed in the baculovirus/Sf9 system; His; made in house; host or cells: Sf9 (baculovirus)
# Sequence (P00519 242-493 limits assumed): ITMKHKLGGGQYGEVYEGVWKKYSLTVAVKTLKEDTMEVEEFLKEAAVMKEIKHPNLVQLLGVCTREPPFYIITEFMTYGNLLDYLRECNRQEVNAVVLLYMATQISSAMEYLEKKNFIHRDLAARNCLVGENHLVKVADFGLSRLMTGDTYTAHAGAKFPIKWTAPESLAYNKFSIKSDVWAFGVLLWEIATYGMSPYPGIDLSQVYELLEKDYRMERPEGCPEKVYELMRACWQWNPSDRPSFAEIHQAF
# ASSAY_INFO: c-Abl protein-tyrosine kinase filter binding assay
# Format: biochemical
# MEASUREMENT_PARAMETERS: Table 5; read-out: C-abl, IC50 class
Let's look at some compounds and their measured IC50.

Cc1nc2c(-c3cccc(N4CCC(N5CCCC5)CC4)c3)cnn2c(N)c1-c1cccc(Cl)c1 : < 1000 nM

Exercise: Could you tell me which IC50 is on file for `Cc1nc2c(-c3cccc(N4CCN(CCO)CC4)c3)cnn2c(N)c1-c1ccc(F)c(F)c1` ?
Solution: < 1000 nM

Exercise: Could you tell me which IC50 is on file for Cc1nc2c(-c3cccc([N+]4([O-])CC[N+](C)([O-])CC4)c3)cnn2c(N)c1-c1ccc(F)cc1 (stereo not shown) ?
Solution: < 1000 nM

Exercise: Could you tell me which IC50 is on file for `Cc1nc2c(-c3cccc(N4CC[N+](C)([O-])CC4)c3)cnn2c(N)c1-c1ccc(F)cc1` ?
Solution: < 1000 nM

* * *

# SYSTEM_UNDER_TEST: c-Abl kinase (Homo sapiens)
# Construct: The His-tagged kinase domain of c-Abl is cloned and expressed in the baculovirus/Sf9 system; His; made in house; host or cells: Sf9 (baculovirus)
# ASSAY_INFO: c-Abl protein-tyrosine kinase filter binding assay
# Type: biochemical
MEASUREMENT_LABEL: IC50

Exercise: Could you tell me which IC50 is on file for `CN1CCN(c2ccc(-c3cnn4c(N)c(-c5ccc(O)cc5)cnc34)cc2)CC1` ?
Solution: < 10 µM

* * *

# SYSTEM_UNDER_TEST: Cdk1/cycB (UniProt P06493)
# ASSAY_INFO: Cdk1/cycB kinase assay, histone H1 substrate
# Format: biochemical, starfish
# MEASUREMENT_PARAMETERS: Table 5; read-out: CDK1/B, IC50 class
pIC50: −log10 of the molar value.
MEASUREMENT_LABEL: pIC50

Cc1nc2c(-c3cccc(N4CCN(CCO)CC4)c3)cnn2c(N)c1-c1ccc(F)cc1 : < 5.00
COc1ccc(-c2cnn3c(N)c(-c4cccc(Cl)c4)c(CF)nc23)cc1OC : < 5.00
COc1ccc(-c2cnn3c(N)c(-c4ccc(F)c(Cl)c4)c(C)nc23)cc1 : < 5.00
COc1ccc(-c2cnn3c(N)c(-c4cccc(Cl)c4)c(C)nc23)cc1 : < 5.00
CN1CCN(c2cccc(-c3cnn4c(N)c(-c5cccc(Br)c5)cnc34)c2)CC1 : < 5.00

Exercise: Could you tell me which pIC50 is on file for `Cc1nc2c(-c3ccc(N4CCN(C)CC4)cc3)cnn2c(N)c1-c1ccc(F)cc1` ?
Solution: < 5.00

Exercise: Could you tell me which pIC50 is on file for `COc1ccc(-c2cnn3c(N)c(-c4ccc(F)cc4)c(C)nc23)cc1` ?
Solution: < 5.00

Exercise: Could you tell me which pIC50 is on file for `Cc1nc2c(-c3cccc(N4CCN(C)CC4)c3)cnn2c(N)c1-c1ccc(F)cc1` ?
Solution: < 5.00

* * *

MEASUREMENT_LABEL: melting point

Worked examples follow.
CN1CCN(c2cccc(-c3cnn4c(N)c(Cc5cccc(Br)c5)cnc34)c2)CC1 : 170 to 171 °C
Cc1nc2c(-c3ccc(N4CCN(C)CC4)cc3)cnn2c(N)c1-c1cccc(Cl)c1 : 113 to 115 °C
COc1ccc(-c2cnn3c(N)c(-c4ccc(F)c(F)c4)c(C)nc23)cc1OC : 230 to 235 °C
CN(C)c1ccc(-c2cnn3c(N)c(-c4ccc(OS(=O)(=O)c5ccc(Cl)cc5)cc4)cnc23)cc1 : 186 to 188 °C
Cc1nc2c(-c3cccc(N4CCOCC4)c3)cnn2c(N)c1-c1cccc(Cl)c1 : 165 to 167 °C

Exercise: Could you tell me which melting point is on file for `COc1ccc(N2CCN(C)CC2)cc1-c1cnn2c(N)c(-c3cccc(Cl)c3)c(C)nc12` ?
Solution: 116 to 121 °C

Exercise: Could you tell me which melting point is on file for `Cc1nc2c(-c3cccc(N4CCN(C)CC4)c3)cnn2c(N)c1-c1cccc(Cl)c1` ?
Solution: 110 to 115 °C

Exercise: Could you tell me which melting point is on file for `Cc1nc2c(-c3cccc(N4CCC(N5CCCC5)CC4)c3)cnn2c(N)c1-c1ccc(F)cc1` ?
Solution: 244 to 249 °C
